Origin of measurements: paper PMC3578163

target_entity: T1, DNA polymerase kappa catalytic core (hpol κ19-526) (Homo sapiens, UniProt Q9UBT6 19-526)
T1 sequence: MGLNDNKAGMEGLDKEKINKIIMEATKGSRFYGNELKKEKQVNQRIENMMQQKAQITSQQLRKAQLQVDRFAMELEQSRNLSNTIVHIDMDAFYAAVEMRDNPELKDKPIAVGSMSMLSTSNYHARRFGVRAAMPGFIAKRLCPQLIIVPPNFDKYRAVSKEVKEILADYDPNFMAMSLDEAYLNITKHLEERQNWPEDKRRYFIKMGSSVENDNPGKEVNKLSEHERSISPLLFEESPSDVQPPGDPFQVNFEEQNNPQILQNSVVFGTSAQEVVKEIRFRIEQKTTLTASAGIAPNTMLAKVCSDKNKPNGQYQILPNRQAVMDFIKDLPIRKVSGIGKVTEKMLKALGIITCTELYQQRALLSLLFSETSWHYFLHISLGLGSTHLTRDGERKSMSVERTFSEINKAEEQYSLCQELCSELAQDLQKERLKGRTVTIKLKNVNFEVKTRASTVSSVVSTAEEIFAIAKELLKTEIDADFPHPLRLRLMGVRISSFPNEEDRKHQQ
assay_details: fluorescence polarization
pKd: −log10 of the molar value.

binder	pKd
FAM-13/18mer primer-template DNA (dsDNA) DNA 1: TTTGGGGGAAGGATTC DNA 2: TCACGGAATCCTTCCCCC	7.95
